Tested on: Gaeumannomyces graminis var. tritici (Ggt)
Experiment: In vitro Assay: mycelial growth of Ggt on minimal media agar plates containing test compound
Format: cell-based
Settings: Gaeumannomyces graminis; 1 ppm in minimal media agar; dark, 19-20° C., 4 to 5 days; diameter of mycelial growth; read-out: In vitro (ppm) 1, Percent Inhibition
Class assignment keyed on inhibition at 1 ppm, ranges lower band: < 20%; central band: ≥ 20% and < 60%; upper band: ≥ 60%

>>> assigned_class("C[Si](C)(C)c1cc(Cl)sc1C(=O)NCCOS(C)(=O)=O")
"lower band"
>>> assigned_class("C#CCNC(=O)c1c(Br)cccc1[Si](C)(C)C")
"upper band"
>>> assigned_class("C=C[Si](C)(c1ccccc1)c1cccc(Cl)c1C(=O)NCC (centres unmarked)")
"central band"
>>> assigned_class("CCNC(=O)C1=CSC(Cl)N1[Si](C)(C)C (centres unmarked)")
"lower band"
>>> assigned_class("CCNC(=O)c1c(Cl)cccc1[Si](C)(C)C(C)(C)C")
"central band"
>>> assigned_class("CN(Cc1ccc(C(C)(C)C)cc1)C(=O)c1c(Cl)cccc1[Si](C)(C)C")
"central band"
>>> assigned_class("CC(C)N(O)C(=O)c1c(Cl)cccc1[Si](C)(C)C")
"upper band"
>>> assigned_class("CCNC(=O)n1nccc1[Si](C)(C)C")
"central band"
>>> assigned_class("C[Si](C)(C)c1cccc(Cl)c1C(=O)NCc1ccncc1")
"lower band"
>>> assigned_class("CCN(CC)C(=O)c1c(F)cccc1[S+]([O-])C(C)(C)C (centres unmarked)")
"central band"
>>> assigned_class("CCN(Cc1ccccc1)C(=O)c1c(Cl)cccc1[Si](C)(C)C")
"lower band"
>>> assigned_class("C=CCNC(=O)c1sc(Cl)cc1[Si](C)(C)C")
"upper band"
>>> assigned_class("CCNC(=O)c1c(Cl)cc(C=O)cc1[Si](C)(C)C")
"central band"
>>> assigned_class("CCCCNC(=O)c1c(Cl)cccc1[Si](C)(C)C")
"lower band"
>>> assigned_class("CCN(CC)C(=O)c1sccc1[Si](C)(C)C")
"lower band"
>>> assigned_class("CCN(CC)C(=O)c1c(F)ccc(F)c1[Si](C)(C)C")
"central band"
>>> assigned_class("CCN(CC)C(=O)c1ccccc1[Si](C)(C)C [Example 2, N,N-Diethyl-2-(trimethylsilyl)benzamide]")
"central band"
>>> assigned_class("CCNC(=O)c1cc(NC)ccc1[Si](C)(C)C")
"upper band"
>>> assigned_class("CN(C(=O)c1c(Cl)cccc1[Si](C)(C)C)C(C)(C)C")
"lower band"
>>> assigned_class("CC(C)N(C)C(=O)c1c(Cl)cccc1[Si](C)(C)C")
"lower band"

---

Form field: inhibition at 0.1 ppm (one value per entry).
Test system: Gaeumannomyces graminis var. tritici (Ggt)
Assay: In vitro Assay: mycelial growth of Ggt on minimal media agar plates containing test compound
Type: cell-based
Details: Gaeumannomyces graminis; 0.1 ppm in minimal media agar; dark, 19-20° C., 4 to 5 days; diameter of mycelial growth; read-out: In vitro (ppm) 0.1, Percent Inhibition
parameter: inhibition at 0.1 ppm

>>> observed_value("COc1cc(CNC(=O)c2c(Cl)cccc2[Si](C)(C)C)cc(OC)c1OC [Example 140]")
"19%"
>>> observed_value("CCNC(=O)c1cccc([N+](=O)[O-])c1[Si](C)(C)C [Example 246]")
"< 0%"
>>> observed_value("CCNC(=O)c1c(F)cccc1[Si](C)(C)C [Example 117]")
"36%"
>>> observed_value("CC(C)N(C)C(=O)c1c(Cl)cccc1[Si](C)(C)C [Example 164]")
"3%"
>>> observed_value("CCNC(=O)c1c(-c2ccccc2)cccc1[Si](C)(C)C [Example 221]")
"15%"
>>> observed_value("CCNC(=O)c1sc2c(c1[Si](C)(C)C)CCCC2 [Example 274]")
"< 0%"
>>> observed_value("CCN(CC=CC#CC(C)(C)C)C(=O)c1c(Cl)cccc1[Si](C)(C)C [Example 104]")
"< 0%"
>>> observed_value("CCNC(=O)c1ccccc1[Si](C)(C)C [Example 49, N-Ethyl-2-(trimethylsilyl)benzamide]")
"100%"
>>> observed_value("CCN(CC)C(=O)c1c([Si](C)(C)C)ccc(F)c1Cl [Example 88]")
"< 0%"

---

Tested on: Gaeumannomyces graminis var. tritici (Ggt)
Assay: In vitro Assay: mycelial growth of Ggt on minimal media agar plates containing test compound
Type: cell-based
Conditions: Gaeumannomyces graminis; 1 ppm in minimal media agar; dark, 19-20° C., 4 to 5 days; diameter of mycelial growth; read-out: In vitro (ppm) 1, Percent Inhibition
The following compounds are listed with their measured inhibition at 1 ppm values.
parameter: inhibition at 1 ppm (%)

>>> observed_value("C[Si](C)(C)c1cccc(Cl)c1C(=O)NC1CCC1 [Example 163]")
85
>>> observed_value("CCNC(=O)c1c(Cl)cccc1OC(C)(C)C [Example 89]")
85
>>> observed_value("C[Si](C)(C)c1cccc(I)c1C(=O)NC1CC1 [Example 209]")
90

---

System: Gaeumannomyces graminis var. tritici (Ggt)
Experiment: In vitro Assay: mycelial growth of Ggt on minimal media agar plates containing test compound
Format: cell-based
Details: Gaeumannomyces graminis; 1 ppm in minimal media agar; dark, 19-20° C., 4 to 5 days; diameter of mycelial growth; read-out: In vitro (ppm) 1, Percent Inhibition
Think of 80% as a floor: if inhibition at 1 ppm stands on it or above, it is yes (1); beneath it, no (0).

>>> assigned_class("C=CCONC(=O)c1c([Si](C)(C)C)ccc(Cl)c1Cl [Example 204]")
"no (0)"
>>> assigned_class("CCN(C)C(=O)c1c(Cl)cccc1[Si](C)(C)C [Example 22]")
"no (0)"
>>> assigned_class("CCNC(=O)c1c(Cl)cccc1[Si](C)(C)CCl [Example 83]")
"yes (1)"
>>> assigned_class("CC(CCl)NC(=O)c1c(Cl)cccc1[Si](C)(C)C (centres unmarked) [Example 171]")
"yes (1)"
>>> assigned_class("C[Si](C)(C)c1cccc(Cl)c1NC(=O)C(Cl)(Cl)Cl [Example 175]")
"no (0)"
>>> assigned_class("C[Si](C)(C)c1cccc(Cl)c1C(=O)NCc1ccccn1 [Example 135]")
"no (0)"
>>> assigned_class("CCNC(=O)c1cccc(F)c1[Si](C)(C)C [Example 12]")
"yes (1)"
>>> assigned_class("CCNC(=O)c1sc(C)c(C)c1[Si](C)(C)C [Example 286]")
"yes (1)"
>>> assigned_class("C[Si](C)(C)c1cccc(Cl)c1C(=O)NCc1ccccc1 [Example 31]")
"no (0)"
>>> assigned_class("CCNC(=O)c1sccc1[Si](C)(C)C [Example 248]")
"no (0)"
>>> assigned_class("CC(C)N(O)C(=O)c1sc(Cl)cc1[Si](C)(C)C [Example 287]")
"no (0)"

---

System: Gaeumannomyces graminis var. tritici (Ggt)
Experiment: In vitro Assay: mycelial growth of Ggt on minimal media agar plates containing test compound
Assay type: cell-based
Conditions: Gaeumannomyces graminis; 1 ppm in minimal media agar; dark, 19-20° C., 4 to 5 days; diameter of mycelial growth; read-out: In vitro (ppm) 1, Percent Inhibition
Label rule, in plain words: inhibition at 1 ppm of 70% and up is 1 (yes), under 70% is 0 (no).

>>> assigned_class("CCNC(=O)c1c([Si](C)(C)C)ccc([N+](=O)[O-])c1Cl")
"0 (no)"
>>> assigned_class("CCNC(=O)c1oc([Si](C)(C)C)cc1[Si](C)(C)C")
"0 (no)"
>>> assigned_class("CCNC(=O)c1sncc1[Si](C)(C)C")
"0 (no)"
>>> assigned_class("CCNC(=O)c1c(C)cccc1N(C)C(C)(C)C")
"1 (yes)"
>>> assigned_class("C/C=C\\NC(=O)c1c(Cl)cccc1[Si](C)(C)C")
"1 (yes)"
>>> assigned_class("C[Si](C)(C)c1cccc(Cl)c1C(=O)Nc1ccccc1C1CCCC1")
"0 (no)"
>>> assigned_class("CCNC(=O)c1c([Si](C)(C)C)ccc(Cl)c1Cl")
"1 (yes)"
>>> assigned_class("CCN(CC)C(=O)c1c(Cl)cccc1C[Si](C)(C)C")
"0 (no)"
>>> assigned_class("CN(C(=O)c1cccc(F)c1[Si](C)(C)C)C(C)(C)C")
"0 (no)"
>>> assigned_class("CCC(C)NC(=O)c1c(Cl)cccc1[Si](C)(C)C (stereo not shown)")
"1 (yes)"
>>> assigned_class("C[Si](C)(C)c1cccc(Cl)c1C(=O)NCCCl")
"1 (yes)"
>>> assigned_class("CCN(CC)C(=O)c1c(C)ccc(F)c1[Si](C)(C)C(C)(C)C")
"0 (no)"
>>> assigned_class("C#CCNC(=O)c1c(I)cccc1[Si](C)(C)C")
"1 (yes)"
>>> assigned_class("C=C(C)CNC(=O)c1c(Cl)cccc1[Si](C)(C)C")
"0 (no)"
>>> assigned_class("CCOCCN(CC)C(=O)c1c(Cl)cccc1[Si](C)(C)C")
"0 (no)"
>>> assigned_class("CCNC(=O)c1cnn(C)c1[Si](C)(C)C")
"0 (no)"
>>> assigned_class("CCNC(=O)c1c(Cl)ccc(Cl)c1[Si](C)(C)C")
"1 (yes)"
>>> assigned_class("CCNC(=O)c1c([Si](C)(C)C)ccc(Cl)c1F")
"1 (yes)"
>>> assigned_class("CCNC(=O)c1sc(Cl)cc1[Si](C)(C)C")
"1 (yes)"
>>> assigned_class("CC1CN(C(=O)c2c(Cl)cccc2[Si](C)(C)C)CC(C)O1 (stereo not shown)")
"0 (no)"
>>> assigned_class("CCNC(=O)c1c([Si](C)(C)C)ccc(C#N)c1Cl")
"0 (no)"
>>> assigned_class("CCNC(=O)c1c([Si](C)(C)C)ccc(S(C)(=O)=O)c1Cl")
"0 (no)"
>>> assigned_class("CCSC(=O)c1c(Cl)cccc1[Si](C)(C)C")
"0 (no)"
>>> assigned_class("CCOc1ccccc1NC(=O)c1c(Cl)cccc1[Si](C)(C)C")
"0 (no)"
>>> assigned_class("CNC(=O)c1c(Cl)cccc1[Si](C)(C)C")
"0 (no)"
>>> assigned_class("CCNC(=O)c1cccn1C[Si](C)(C)C")
"0 (no)"
>>> assigned_class("CCNC(=O)c1c([Si](C)(C)C)ccc(OC)c1Cl")
"1 (yes)"
>>> assigned_class("CC(C)SC(=O)c1c(Cl)cccc1[Si](C)(C)C")
"0 (no)"
>>> assigned_class("CCNC(=O)c1cc(C(F)(F)F)ccc1[Si](C)(C)C")
"0 (no)"
>>> assigned_class("Cc1ccc(F)c([Si](C)(C)C)c1C(=O)N(C)C(C)(C)C")
"0 (no)"
>>> assigned_class("CCCNC(=O)c1c(Cl)cccc1[Si](C)(C)C")
"1 (yes)"
>>> assigned_class("CCNC(=O)c1c([Si](C)(C)C)ccc(C(C)=O)c1Cl")
"0 (no)"
>>> assigned_class("COc1cc(CNC(=O)c2c(Cl)cccc2[Si](C)(C)C)cc(OC)c1OC")
"0 (no)"
>>> assigned_class("CCN(Cc1ccco1)C(=O)c1c(Cl)cccc1[Si](C)(C)C")
"0 (no)"
>>> assigned_class("CSNC(=O)c1c(Cl)cccc1[Si](C)(C)C")
"0 (no)"
